Test system: Trypanosoma brucei brucei
Assay: Antitrypanosomal activity against bloodstream form of Trypanosoma brucei brucei MITat1.1 after 24 hrs by Alamar Blue assay
pEC50: −log10 of the molar value.
Param threshold (5) applies to pEC50; output label 1 when value >= threshold, label 0 when value < threshold.

Some entries whose results are on file:
CC(C)(C)OC(=O)NCCCC[C@@H](/C=C/S(=O)(=O)c1ccccc1)NC(=O)[C@H](Cc1ccccc1)NC(=O)OCc1ccccc1    label 1
CC(C)(C)OC(=O)NCCCC[C@@H](CCS(=O)(=O)c1ccccc1)NC(=O)[C@H](Cc1ccccc1)NC(=O)OCc1ccccc1    label 0
CC(C)(C)OC(=O)NCCCC[C@@H](/C=C/S(=O)(=O)c1cccc2ccccc12)NC(=O)[C@H](Cc1ccccc1)NC(=O)OCc1ccccc1    label 1

Here's the next entry for you.
Query :: Given CN1CCN(C(=O)N[C@@H](Cc2ccccc2)C(=O)N[C@H](/C=C/S(=O)(=O)c2ccccc2)CCc2ccccc2)CC1 , state whether its pEC50 is at least 5.
Result :: label 1

Cited source: ChEMBL document CHEMBL2417518
